Test system: A549
assay-overview: NCI tumour cell line growth inhibition, 48 h
The source made the active and inactive calls. Cut-off read from the data, not from the text of the source: active = GI50 up to about 1.1 µM and inactive = higher. Where a SMILES comes first, the peptide text is derived from it. The star is where a group is joined. Fmoc = O=C(OCC1c2ccccc2-c2ccccc21)*; Boc = CC(C)(C)OC(=O)*
Reported GI50 is given for each of the following compounds.
measurement-label: GI50

compound: O=c1onc2n1-c1cc(Cl)ccc1C(=S)N1CSCC21 (centres undefined)
result: > 100 µM (inactive)
//
compound: COc1ccc2[nH]c(Cl)c(/C=C3/C(=O)Nc4cc(C)c(OC)cc43)c2c1
result: 5.26 µM (inactive)
//
compound: CC(C)(C)OC(=O)NCCCCC(NC(=O)OCC1c2ccccc2-c2ccccc21)C(=O)N1CCCC1C(=O)NCC(N)=O (stereo not drawn) (Fmoc-Lys(Boc)-Pro-Gly-NH2; configuration not given here)
result: 51.4 µM (inactive)
//
compound: COc1ccccc1/C=C(\NC(=O)c1ccccc1)c1nc2ccccc2[nH]1
result: 46.8 µM (inactive)
//
compound: CCOC(=O)CNC(=O)C(CSCC1C(=O)Nc2ccccc21)NC(=O)CCC(N)C(=O)OCC (centres undefined)
result: 2.34 µM (inactive)
//
compound: CCCN(CCC)c1c([N+](=O)[O-])cc(C(=O)N(C)C)cc1[N+](=O)[O-]
result: 51.5 µM (inactive)
//
compound: CC1=CCC[C@@](C)(O)[C@@H]2C[C@H]3C(CSc4ccccc4)C(=O)O[C@H]3[C@@H](O2)[C@H](C)CCC1 (some centres undefined)
result: 10.5 µM (inactive)
//
compound: Cn1c2c3c(F)c(F)ccc3nc-2cc2ccccc21
result: 2.34 µM (inactive)
//
compound: COc1cccc(C(=O)C(O)c2cccc(OC)c2OC)c1OC (centres undefined)
result: > 100 µM (inactive)

====

Reported GI50 is given for each of the following molecules.
Tested on: MDA-MB-231
assay-overview: NCI tumour cell line growth inhibition, 48 h
The source made the active and inactive calls. Cut-off read from the data, not from the text of the source: active = GI50 up to about 1.1 µM and inactive = higher.

molecule: CC(C)(C)OC(=O)CN1CCNCCNCC1
GI50: > 100 µM (inactive)
//
molecule: CC(C)(C)OC(=O)[C@H]1CCC(=S)N1Cc1ccccc1
GI50: > 100 µM (inactive)
//
molecule: Nc1nc(F)nc2c1ncn2C1OC(CO)C(O)C1O (stereo unspecified)
GI50: > 100 µM (inactive)
//
molecule: CN(/N=C\c1ccc2ccccc2c1)C1=NCCN1
GI50: 16.4 µM (inactive)
//
molecule: CCOC(=O)N1CCc2cc(OC)c(OC)c3c2c1cc1cc(OC)c(OC)cc13
GI50: 5.96 µM (inactive)
//
molecule: O=C(/C=C\c1ccc(-c2ccccc2)cc1)c1cccs1
GI50: 48.5 µM (inactive)

====

System: HCT-116
assay-overview: NCI tumour cell line growth inhibition, 48 h
Activity calls are given as the source filed them. Cut-off read from the data, not from the text of the source: active = GI50 up to about 1.1 µM and inactive = higher.
Classes used: active, inactive

compound: CSc1cnc2ccccc2c1SC1CN(Cc2ccccc2)c2ccccc2C1=O (stereo unspecified)
tested-on: HCT-116
label-class: inactive

compound: CCCCCCCCCCCCCCCC/C(C(=O)OC)=C(/O)C(=O)OCC
tested-on: HCT-116
label-class: inactive

compound: CCCCCCN(CCCCCC)C(=S)N/N=C(\C)c1ccccn1
tested-on: HCT-116
label-class: active

compound: C[C@]12CC/C(=N\OCCN3CCCCC3)C=C1CCC1C2CC[C@@]2(C)C1CC[C@]2(C)O (stereo partly specified)
tested-on: HCT-116
label-class: inactive

compound: CCCN(CCCC(NC(C)=O)C(=O)NCc1ccccc1)C(=O)N(CCCl)N=O (stereo unspecified)
tested-on: HCT-116
label-class: inactive

compound: O=C(O)c1ccc(C2C(=O)N[C@@H]3CCC[C@H]23)cc1 (stereo partly specified)
tested-on: HCT-116
label-class: inactive

compound: O=P12N(CCN1c1ccccc1)CCN2c1ccccc1
tested-on: HCT-116
label-class: inactive

compound: CC(C)OC(=O)NNc1cccc(Cl)c1
tested-on: HCT-116
label-class: inactive

compound: CCN(CCCl)CCCNc1c2ccccc2nc2ccc(OC)cc12
tested-on: HCT-116
label-class: active

compound: CN1CCC(O)(C(C)(C)C)CC1
tested-on: HCT-116
label-class: inactive

compound: CC(C)C(OC(=O)c1ccc(NCc2cc(O)ccc2O)cc1)C(C)C
tested-on: HCT-116
label-class: inactive
